These measurements were taken from patent US20210238260.

TARGET UNDER TEST: Factor X, P00742
Sequence (P00742 whole entry, looked up): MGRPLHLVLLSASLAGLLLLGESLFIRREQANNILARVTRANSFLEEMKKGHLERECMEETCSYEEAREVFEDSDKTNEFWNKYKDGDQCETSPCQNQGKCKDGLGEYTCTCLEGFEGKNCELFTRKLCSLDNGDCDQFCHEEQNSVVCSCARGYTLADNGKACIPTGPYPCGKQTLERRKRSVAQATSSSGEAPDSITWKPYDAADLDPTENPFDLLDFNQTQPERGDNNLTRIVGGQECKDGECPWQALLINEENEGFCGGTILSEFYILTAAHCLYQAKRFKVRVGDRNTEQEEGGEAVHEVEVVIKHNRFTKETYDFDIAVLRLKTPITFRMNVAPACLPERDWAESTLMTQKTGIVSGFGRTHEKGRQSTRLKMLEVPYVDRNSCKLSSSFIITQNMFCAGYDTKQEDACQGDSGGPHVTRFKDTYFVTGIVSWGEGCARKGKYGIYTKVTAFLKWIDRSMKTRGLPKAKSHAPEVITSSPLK
MEASURED PROPERTY: kcat (s⁻¹)

1) FIXa-Y155F/K247N/N249S/R318Y/R338E/T343R/E410N (protein) chain 1: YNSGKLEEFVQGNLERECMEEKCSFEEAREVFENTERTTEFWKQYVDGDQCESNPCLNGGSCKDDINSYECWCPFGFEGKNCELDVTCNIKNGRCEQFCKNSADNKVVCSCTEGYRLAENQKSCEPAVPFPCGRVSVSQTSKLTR chain 2: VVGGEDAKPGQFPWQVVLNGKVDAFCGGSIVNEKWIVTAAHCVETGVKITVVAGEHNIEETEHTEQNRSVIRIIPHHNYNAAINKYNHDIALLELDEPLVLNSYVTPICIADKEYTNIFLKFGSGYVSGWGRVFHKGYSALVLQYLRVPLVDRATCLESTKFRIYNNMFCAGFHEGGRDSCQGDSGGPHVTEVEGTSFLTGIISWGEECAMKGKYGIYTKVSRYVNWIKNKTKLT    7.7
2) FIXa-N260S/R318Y/R338E/T343R/R403E/E410N (protein) chain 1: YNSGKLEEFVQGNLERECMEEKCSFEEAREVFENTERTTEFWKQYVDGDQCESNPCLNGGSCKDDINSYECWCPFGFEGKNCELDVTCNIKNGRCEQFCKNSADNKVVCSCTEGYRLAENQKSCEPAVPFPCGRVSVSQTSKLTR chain 2: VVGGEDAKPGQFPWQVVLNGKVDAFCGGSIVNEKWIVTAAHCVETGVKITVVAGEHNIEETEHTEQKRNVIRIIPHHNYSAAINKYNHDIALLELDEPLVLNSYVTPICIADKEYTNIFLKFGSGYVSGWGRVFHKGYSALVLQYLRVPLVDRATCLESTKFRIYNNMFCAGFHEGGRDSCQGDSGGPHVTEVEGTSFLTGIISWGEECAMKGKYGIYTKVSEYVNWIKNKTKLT    8.9
3) FIXa-K247N/N249S/R318Y/R338E/T343R/R403E/E410N (protein) chain 1: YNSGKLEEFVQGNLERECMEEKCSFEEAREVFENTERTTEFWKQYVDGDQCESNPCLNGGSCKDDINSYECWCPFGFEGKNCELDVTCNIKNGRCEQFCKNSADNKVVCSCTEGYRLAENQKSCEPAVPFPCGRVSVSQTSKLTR chain 2: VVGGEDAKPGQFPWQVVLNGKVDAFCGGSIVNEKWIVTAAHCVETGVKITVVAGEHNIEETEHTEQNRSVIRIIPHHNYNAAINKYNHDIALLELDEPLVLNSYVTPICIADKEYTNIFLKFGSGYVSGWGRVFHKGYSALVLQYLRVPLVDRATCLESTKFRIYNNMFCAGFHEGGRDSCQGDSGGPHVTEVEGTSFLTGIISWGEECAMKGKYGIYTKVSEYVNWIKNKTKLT    10.6
4) FIXa-D104N/K106S/Y155F/K247N/N249S/N260S (protein) chain 1: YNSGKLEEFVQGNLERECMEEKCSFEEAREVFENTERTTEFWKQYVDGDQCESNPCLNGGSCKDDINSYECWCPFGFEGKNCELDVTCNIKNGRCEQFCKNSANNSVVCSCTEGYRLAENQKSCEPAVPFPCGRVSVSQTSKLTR chain 2: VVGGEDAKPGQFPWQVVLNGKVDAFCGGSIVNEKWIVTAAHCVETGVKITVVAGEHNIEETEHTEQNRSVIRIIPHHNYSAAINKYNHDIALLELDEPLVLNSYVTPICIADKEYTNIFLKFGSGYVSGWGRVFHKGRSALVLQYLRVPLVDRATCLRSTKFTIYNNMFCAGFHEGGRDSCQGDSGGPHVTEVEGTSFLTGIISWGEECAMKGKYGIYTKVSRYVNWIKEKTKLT    0.5
